Molecular target: Human BCMA (human) (UniProt Q02223)
Assay: SPR, IgG on chip, huBCMA analyte
ASSAY READOUT: koff (s⁻¹)
Quick note: give the figure in s⁻¹, leave out the unit.

A02_Rd4_6nM_C07 (antibody, V domains shown, IgG) VH: EVQLLESGGGLVQPGGSLRLSCAASGFTFSSYAMNWVRQAPGKGLEWVSAIGGSGGSLPYADSVKGRFTISRDNSKNTLYLQMNSLRAEDTAVYYCARYWPMDSWGQGTLVTVSS VL: EIVLTQSPGTLSLSPGERATLSCRASQSVSPYYLAWYQQKPGQAPRLLMYDASIRATGIPDRFSGSGSGTDFTLTISRLEPEDFAVYYCQQYERWPLTFGQGTKVEIK: 0.000189

Recorded koff (binder COMBO_Rd4_0.6nM_C21 (antibody, V domains shown, IgG) VH: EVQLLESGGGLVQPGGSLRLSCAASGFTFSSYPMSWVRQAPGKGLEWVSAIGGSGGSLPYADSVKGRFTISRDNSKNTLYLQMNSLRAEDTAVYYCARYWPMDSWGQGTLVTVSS VL: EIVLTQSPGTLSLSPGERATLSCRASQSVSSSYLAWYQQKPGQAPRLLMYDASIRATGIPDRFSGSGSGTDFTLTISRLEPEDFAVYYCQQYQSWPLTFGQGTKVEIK ): 0.000115
